Ratio EC50 by entry:
- Tested on: Macacine alphaherpesvirus 1
- measurement.protocol: Ratio of acyclovir EC50 to compound EC50 for Macacine herpesvirus 1 isolate A2 infected in african green monkey Vero cells
- Format: functional
Respond numerically, and do not add a unit to the figure.

Take a look at these entries with their results.
# compound, Ratio EC50
records = [
    ("Cc1cn([C@H]2O[C@@H](CO)[C@H](O)[C@H]2F)c(=O)[nH]c1=O [CLEVUDINE]", 100),
    ("Nc1nc(=O)n([C@@H]2O[C@H](CO)[C@@H](O)[C@@H]2F)cc1Br", 10),
    ("Cc1cn([C@@H]2O[C@H](CO)[C@@H](O)[C@@H]2F)c(=O)nc1N", 10),
]

Task item: Look up Ratio EC50 with Macacine alphaherpesvirus 1 for this compound: CCc1cn([C@H]2O[C@@H](CO)[C@H](O)[C@H]2F)c(=O)[nH]c1=O (single isomer, unassigned)
Reply: 100

---

Examples of molecules with documented EC50 follow.
- Test system: Macacine alphaherpesvirus 1
- measurement.protocol: Antiviral activity against Macacine herpesvirus 1 isolate MJ3 infected in african green monkey Vero cells by plaque reduction assay
- Assay type: functional, organism-based
- condition.context: Macacine alphaherpesvirus 1, isolate MJ3, Vero
Numbers only; they are read as µM.

# chemical.string, unit.tag, EC50
rows = [
    ("Nc1ncnc2c1ncn2[C@@H]1O[C@H](CO)[C@@H](O)[C@@H]1O", "µM", 26.5),
]

Task item: Value lookup for EC50; key = "Nc1nc2c(ncn2COCCO)c(=O)[nH]1"
Reply: 19.3

---

- Tested on: Macacine alphaherpesvirus 1
- measurement.protocol: Ratio of acyclovir EC50 to compound EC50 for Macacine herpesvirus 1 isolate A6 infected in african green monkey Vero cells
- Type: functional
The following molecules are listed with their measured Ratio EC50 values.
Give your answer as a number; write no unit.

Examples with answers:
# molecule, Ratio EC50
data = [
    ("Cc1cn([C@H]2O[C@@H](CO)[C@H](O)[C@H]2F)c(=O)[nH]c1=O", 100),
    ("CCc1cn([C@H]2O[C@@H](CO)[C@H](O)[C@H]2F)c(=O)[nH]c1=O (single isomer, unassigned)", 100),
]

Task item: Which value of Ratio EC50 has been reported for "Cc1cn([C@@H]2O[C@H](CO)[C@@H](O)[C@@H]2F)c(=O)nc1N" in the records?
Reply: 10

Task item: Record request: Ratio EC50 value, item "Nc1nc(=O)n([C@@H]2O[C@H](CO)[C@@H](O)[C@@H]2F)cc1Br"
Reply: 10

---

Item-by-item account of pEC50
- Tested on: Macacine alphaherpesvirus 1
- measurement.protocol: Antiviral activity against Macacine herpesvirus 1 isolate A6 infected in african green monkey Vero cells by plaque reduction assay
- Assay type: functional, organism-based
- condition.context: Macacine alphaherpesvirus 1, isolate A6, Vero
Quick note: pEC50 means taking -log10 of the concentration in moles per liter.

# chemical.string, pEC50
measured = [
    ("Nc1nc2c(ncn2COCCO)c(=O)[nH]1", 4.71),
]

Consider the additional molecule presented here.
Task item: Fill in the recorded pEC50 for this molecule, with Macacine alphaherpesvirus 1 as test system: "Nc1ncnc2c1ncn2[C@@H]1O[C@H](CO)[C@@H](O)[C@@H]1O"
Reply: 4.58

---

- System: Macacine alphaherpesvirus 1
- measurement.protocol: Antiviral activity against Macacine herpesvirus 1 isolate A4 infected in african green monkey Vero cells by plaque reduction assay
- Assay type: functional, organism-based
- condition.context: Macacine alphaherpesvirus 1, isolate A4, Vero
# reported pEC50; entries follow
In plain terms, pEC50 is the concentration in mol/L turned into minus its base-10 logarithm.

# chemical.string, measured.target, pEC50
data = [
    ("Nc1ncnc2c1ncn2[C@@H]1O[C@H](CO)[C@@H](O)[C@@H]1O", "Macacine alphaherpesvirus 1", 4.58),
]

Continue with the compound presented below.
Task item: Give the measured pEC50 of "Nc1nc2c(ncn2COCCO)c(=O)[nH]1" .
Reply: 4.71

---

- System: Macacine alphaherpesvirus 1
- measurement.protocol: Ratio of acyclovir EC50 to compound EC50 for Macacine herpesvirus 1 isolate MR9 infected in african green monkey Vero cells
- Type: functional
measurement.type: Ratio EC50
Answer as a number with no unit attached.

Use these answered entries as a reference point.
# molecule, Ratio EC50
data = [
    ("Cc1cn([C@@H]2O[C@H](CO)[C@@H](O)[C@@H]2F)c(=O)nc1N", 10),
    ("CCc1cn([C@H]2O[C@@H](CO)[C@H](O)[C@H]2F)c(=O)[nH]c1=O (single isomer, unassigned)", 100),
    ("Cc1cn([C@H]2O[C@@H](CO)[C@H](O)[C@H]2F)c(=O)[nH]c1=O [CLEVUDINE]", 100),
]

Then there is this molecule:
Task item: Find the recorded Ratio EC50 belonging to "Nc1nc(=O)n([C@@H]2O[C@H](CO)[C@@H](O)[C@@H]2F)cc1Br" and report it.
Reply: 10

---

Each entry below carries its recorded Ratio EC50.
- Test system: Macacine alphaherpesvirus 1
- measurement.protocol: Ratio of acyclovir EC50 to compound EC50 for Macacine herpesvirus 1 isolate MR7 infected in african green monkey Vero cells
- Format: functional
Give the figure only, with no unit attached.

Solved cases (3 shown):
# compound, readout.value
measured = [
    ("Nc1nc(=O)n([C@@H]2O[C@H](CO)[C@@H](O)[C@@H]2F)cc1Br", 10),
    ("Cc1cn([C@@H]2O[C@H](CO)[C@@H](O)[C@@H]2F)c(=O)nc1N", 10),
    ("CCc1cn([C@H]2O[C@@H](CO)[C@H](O)[C@H]2F)c(=O)[nH]c1=O (single isomer, unassigned)", 100),
]

Task item: Item under review: Cc1cn([C@H]2O[C@@H](CO)[C@H](O)[C@H]2F)c(=O)[nH]c1=O [CLEVUDINE] . Reported Ratio EC50?
Reply: 100

---

Listed below: Ratio EC50 values for each entry.
- Test system: Macacine alphaherpesvirus 1
- measurement.protocol: Ratio of acyclovir EC50 to compound EC50 for Macacine herpesvirus 1 isolate MR1 infected in african green monkey Vero cells
- Type: functional
# respond with the number and nothing more

Solved entries:
# compound, Ratio EC50
data = [
    ("CCc1cn([C@H]2O[C@@H](CO)[C@H](O)[C@H]2F)c(=O)[nH]c1=O (single isomer, unassigned)", 100),
    ("Nc1nc(=O)n([C@@H]2O[C@H](CO)[C@@H](O)[C@@H]2F)cc1Br", 10),
    ("Cc1cn([C@@H]2O[C@H](CO)[C@@H](O)[C@@H]2F)c(=O)nc1N", 10),
]

# evaluate next
Task item: Param item = "Cc1cn([C@H]2O[C@@H](CO)[C@H](O)[C@H]2F)c(=O)[nH]c1=O" ; retrieve measured Ratio EC50.
Reply: 100

---

Measured Ratio EC50 accompanies every entry in the list below.
- System: Macacine alphaherpesvirus 1
- measurement.protocol: Ratio of acyclovir EC50 to compound EC50 for Macacine herpesvirus 1 isolate MC2 infected in african green monkey Vero cells
- Type: functional
Answer using only a numeral; do not append any unit.

Look over these answered cases.
# compound, Ratio EC50
measured = [
    ("Nc1nc(=O)n([C@@H]2O[C@H](CO)[C@@H](O)[C@@H]2F)cc1Br", 10),
    ("CCc1cn([C@H]2O[C@@H](CO)[C@H](O)[C@H]2F)c(=O)[nH]c1=O (single isomer, unassigned)", 100),
]

Task item: Need Ratio EC50 of "Cc1cn([C@@H]2O[C@H](CO)[C@@H](O)[C@@H]2F)c(=O)nc1N" , thanks.
Reply: 10

Task item: Suppose we examine the compound Cc1cn([C@H]2O[C@@H](CO)[C@H](O)[C@H]2F)c(=O)[nH]c1=O [CLEVUDINE] ; what Ratio EC50 value has been reported?
Reply: 100

---

Examples of molecules with documented Ratio EC50 follow.
- Tested on: Macacine alphaherpesvirus 1
- measurement.protocol: Ratio of acyclovir EC50 to compound EC50 for Macacine herpesvirus 1 isolate MR10 infected in african green monkey Vero cells
- Type: functional
Output spec: single numeric token, no unit.

Task item: Recorded Ratio EC50 of "Cc1cn([C@@H]2O[C@H](CO)[C@@H](O)[C@@H]2F)c(=O)nc1N" , please.
Reply: 10

Task item: Name the recorded Ratio EC50 for "Nc1nc(=O)n([C@@H]2O[C@H](CO)[C@@H](O)[C@@H]2F)cc1Br" .
Reply: 10

Task item: Reported Ratio EC50 for CCc1cn([C@H]2O[C@@H](CO)[C@H](O)[C@H]2F)c(=O)[nH]c1=O (single isomer, unassigned) : what is it?
Reply: 100

Task item: Quick one: Ratio EC50 for Cc1cn([C@H]2O[C@@H](CO)[C@H](O)[C@H]2F)c(=O)[nH]c1=O [CLEVUDINE] ?
Reply: 100

---

- Test system: Macacine alphaherpesvirus 1
- measurement.protocol: Antiviral activity against Macacine herpesvirus 1 isolate MJ2 infected in african green monkey Vero cells by plaque reduction assay
- Assay type: functional, organism-based
- condition.context: Macacine alphaherpesvirus 1, isolate MJ2, Vero
EC50 values by entry
Reply with the number, then its unit.

# chemical.string, EC50
rows = [
    ("Nc1ncnc2c1ncn2[C@@H]1O[C@H](CO)[C@@H](O)[C@@H]1O", "26.5 µM"),
]

# evaluate next
Task item: May I ask what EC50 has been recorded for "Nc1nc2c(ncn2COCCO)c(=O)[nH]1" ?
Reply: 19.3 µM
